System: Fibroblast
Assay protocol: Multiplex assay against human fibroblast
Type: toxicity, cell-based
Test conditions: 24 h, 10 µM, compound concentration 10 uM, replicate 2
In this section we review reported Population Normal (%) values for a set of compounds.
Attribute measured: Population Normal (%)

Compound	Experimental result
CCCS(=O)(=O)Nc1ccc(F)c(C(=O)c2c[nH]c3ncc(Cl)cc23)c1F [PLX-4720]	68%
C=CCn1c(=O)c2cnc(Nc3ccc(N4CCN(C)CC4)cc3)nc2n1-c1cccc(C(C)(C)O)n1 [ADAVOSERTIB]	70%
Cl.O=c1c2cccn2c2ccccc2n1CCCN1CCC(c2ccc(Cl)cc2)CC1	92%

====

Test system: U2OS
Assay protocol: Multiplex assay against U2OS
Type: toxicity, cell-based
Test conditions: human, 24 h, 10 µM, compound concentration 10 uM, replicate 2

Given smiles	Population Apoptotic (%)
CN1CCN(C(=O)C(C)(C)c2ccc(C(=O)Nc3cn4cc(-c5cc(C(C)(C)C)cc(C(C)(C)C)c5)ccc4n3)cc2)CC1	50
CCCn1c(=O)c2[nH]c(-c3cnn(Cc4cccc(C(F)(F)F)c4)c3)nc2n(CC)c1=O	50
CCc1cccc(CC)c1NC(=O)c1nn(C)c2c1CCc1cnc(Nc3ccc(C(=O)NC4CCN(C)CC4)cc3OC(F)(F)F)nc1-2	50
